Numbers sourced from patent US10052320B2.

Target: Ba/F3-Flt3-transfected cells (Homo sapiens, UniProt P36888, cells depend on it, form not given)
Sequence (P36888 1-993): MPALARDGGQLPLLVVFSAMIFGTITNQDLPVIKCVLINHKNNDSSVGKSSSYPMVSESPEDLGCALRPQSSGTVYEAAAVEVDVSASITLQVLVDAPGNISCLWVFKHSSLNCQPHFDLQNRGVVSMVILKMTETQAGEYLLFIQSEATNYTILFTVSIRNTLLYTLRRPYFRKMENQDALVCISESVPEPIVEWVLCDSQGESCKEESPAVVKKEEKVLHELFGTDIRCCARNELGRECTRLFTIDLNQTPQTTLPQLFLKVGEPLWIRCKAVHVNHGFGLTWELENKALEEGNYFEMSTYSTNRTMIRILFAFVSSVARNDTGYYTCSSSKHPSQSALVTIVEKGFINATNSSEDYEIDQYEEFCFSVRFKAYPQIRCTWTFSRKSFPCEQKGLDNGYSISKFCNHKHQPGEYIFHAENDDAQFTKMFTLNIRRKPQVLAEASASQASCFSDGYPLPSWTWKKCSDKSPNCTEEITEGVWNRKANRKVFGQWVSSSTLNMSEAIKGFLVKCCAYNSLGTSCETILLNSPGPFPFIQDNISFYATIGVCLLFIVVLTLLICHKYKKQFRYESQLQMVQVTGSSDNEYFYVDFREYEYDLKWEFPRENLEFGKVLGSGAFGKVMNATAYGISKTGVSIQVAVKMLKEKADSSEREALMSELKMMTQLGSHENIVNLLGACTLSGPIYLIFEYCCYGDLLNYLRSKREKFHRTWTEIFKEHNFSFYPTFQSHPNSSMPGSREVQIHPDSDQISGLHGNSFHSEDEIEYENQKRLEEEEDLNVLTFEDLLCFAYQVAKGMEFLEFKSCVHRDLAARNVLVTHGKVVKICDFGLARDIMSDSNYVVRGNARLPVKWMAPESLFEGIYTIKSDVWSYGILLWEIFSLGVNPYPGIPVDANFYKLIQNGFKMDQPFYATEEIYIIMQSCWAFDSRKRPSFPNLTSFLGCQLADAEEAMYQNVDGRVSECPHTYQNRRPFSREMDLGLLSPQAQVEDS
Experiment: Ba/F3-Flt3 (minus IL3) cellular proliferation assay, Alamar Blue
Assay type: cell-based
Conditions: minus IL3
REPORTED_ENDPOINT: BAF3-FLT3 (MIN IL3) 384 well pIC50

[
  {
    "MOLECULE": "CNC(=O)c1cc(-c2cnc3ccc(N(CCN4CCCC4CO)c4cc(OC)cc(OC)c4)cc3n2)ccn1 (stereo not drawn) [Compound 109]",
    "OBSERVED_MEASUREMENT": "<5"
  },
  {
    "MOLECULE": "COc1cc(OC)cc(N(CC2CC2)c2ccc3ncc(-c4c[nH]cn4)nc3c2)c1 [Compound 39]",
    "OBSERVED_MEASUREMENT": "<5"
  },
  {
    "MOLECULE": "COc1cc(OC)cc(N(CCO)c2ccc3ncc(-n4cnc(CO)c4)nc3c2)c1 [Compound 38]",
    "OBSERVED_MEASUREMENT": "<5"
  },
  {
    "MOLECULE": "COc1cc(OC)cc(N(CC2CC2)c2ccc3ncc(-c4ccccc4)nc3c2)c1 [Compound 119]",
    "OBSERVED_MEASUREMENT": "<5"
  },
  {
    "MOLECULE": "COCC(O)CN(c1cc(OC)cc(OC)c1)c1ccc2ncc(-c3cccnc3)nc2c1 (single isomer, unassigned) [Compound 46]",
    "OBSERVED_MEASUREMENT": "<5"
  }
]

Report BAF3-FLT3 (MIN IL3) 384 well pIC50 for every entry below.
1. COc1cc(OC)cc(N(CC2CC2)c2ccc3ncc(-c4cccc(N5CCOCC5)c4)nc3c2)c1 [Compound 92]
2. COc1cc(OC)cc(N(CCO)c2ccc3ncc(-c4ccc(N5CCNCC5)nc4)nc3c2)c1 [Compound 165]
3. COc1cc(OC)cc(N(CCO)c2ccc3ncc(-c4ccc(OC)nc4)nc3c2)c1 [Compound 111]
4. COc1cc(OC)cc(N(CC2CC2)c2ccc3ncc(C(=O)NCCN4CCOCC4)nc3c2)c1 [Compound 96]

["<5", 5.38, "<5", "<5"]
